Test system: RAW-Dual (murine macrophage reporter line)
Test: viability score (confluency relative to resting cells, overnight) (fraction); higher = more viable, active = viable (0.7 or more)
Conditions: modulator concentration 10 µM
Observed Property: viability score
Please state the value as a number alone, without comment.

>  <Compound>
C=C1C[C@@H]2[C@H](CC[C@]3(C)C(=O)CC[C@@H]23)[C@@]2(C)C=CC(=O)C=C12

>  <viability score>
0.987

$$$$
>  <Compound>
Cc1c(NN=C2C(=O)NC(=O)NC2=O)c(=O)n(-c2ccccc2)n1C

>  <viability score>
0.999

$$$$
>  <Compound>
CCOC(=O)Nc1ccc(NCc2ccc(F)cc2)cc1N

>  <viability score>
1.01

$$$$
>  <Compound>
Cc1cccc(-n2c(C)nc3ccccc3c2=O)n1

>  <viability score>
0.998

$$$$
>  <Compound>
NC(=O)CN1CC(O)CC1=O (configuration not stated)

>  <viability score>
0.996

$$$$

q: Quick check: viability score on RAW-Dual (murine macrophage reporter line), item NC(=O)Cn1c(Cc2ccccc2Cl)nc2ccccc21 ?
a: 0.997

q: Quick check: viability score on RAW-Dual (murine macrophage reporter line), item CC(=O)Oc1ccc(C=Cc2cc(OC(C)=O)cc(OC(C)=O)c2)cc1 ?
a: 1

q: Quick check: viability score on RAW-Dual (murine macrophage reporter line), item COC(=O)COc1ccc(C=C2C(=O)NC(=S)N(c3cccc(Cl)c3Cl)C2=O)cc1OC ?
a: 1.01

q: Quick check: viability score on RAW-Dual (murine macrophage reporter line), item CCCCCC(=O)NC(Oc1ccc([N+](=O)[O-])cc1)C(Cl)(Cl)Cl (configuration not stated) ?
a: 1

q: Quick check: viability score on RAW-Dual (murine macrophage reporter line), item C[C@@H]1CC[C@H]2[C@@H](C)C(=O)O[C@@H]3O[C@@]4(C)CC[C@@H]1[C@]32OO4 ?
a: 0.985

----------
Tested on: RAW-Dual (murine macrophage reporter line)
Test: IRF reporter (Lucia luciferase) activity fold change vs agonist alone; higher = enhanced IRF activity
Settings: modulator concentration 10 µM; agonist: 3'3'-cGAMP 10 ug/mL
IRF reporter for assorted molecules

>  <Molecule>
COC(=O)COc1ccc(C=C2C(=O)NC(=S)N(c3cccc(Cl)c3Cl)C2=O)cc1OC

>  <Endpoint Value>
0.909

$$$$

Consider the record given below.
q: // lookup IRF reporter for CC12CCC3C(CC=C4CC(O)CCC43C)C1CC(=Cc1cccc(F)c1)C2=O (stereo not drawn)
a: 0.907

----------
System: RAW-Dual (murine macrophage reporter line)
Experiment: IRF reporter (Lucia luciferase) activity fold change vs agonist alone; higher = enhanced IRF activity
Settings: modulator concentration 10 µM; agonist: 3'3'-cGAMP 10 ug/mL
Observed Property: IRF reporter
Please state the value as a number alone, without comment.

Illustrative cases are given below, each with its answer.
>  <Molecule>
C[C@@H]1CC[C@H]2[C@@H](C)C(=O)O[C@@H]3O[C@@]4(C)CC[C@@H]1[C@]32OO4

>  <IRF reporter>
1.04

$$$$
>  <Molecule>
c1ccc2c(c1)Nc1ccccc1S2

>  <IRF reporter>
0.778

$$$$

Consider the record given below.
q: Quick check: IRF reporter on RAW-Dual (murine macrophage reporter line), item Cc1ccccc1C(=O)Nc1cc(Cl)c([N+](=O)[O-])cc1Cl ?
a: 0.997

Origin of measurements: the supplement of paper PMC10646978
